- method.summary: qHTS RealTime-Glo MT Cell Viability Assay in HEK293 cells - 0 hour (AID 1224880); further: nearly all actives have a fitted effect of over 45% in size
- condition.notes: RealTime-Glo luminescence; series mostly up to 76.8 µM
Records with an inconclusive call do not appear. The source made the active and inactive calls. The call rests on the fitted dose curve; in most records, active means well fitted cell-killing curve with a large enough effect in the repeat runs; inconclusive means weak or mixed curves, or effect the other way; inactive means flat fitted curve, though single readings scatter.
# valid calls are TRUE for active, FALSE for inactive; nothing else

Example results:
O=C(NOCC1CC1)c1ccc(F)c(F)c1Nc1ccc(I)cc1Cl :: TRUE
OCCN(CCO)c1nc(N2CCCCC2)c2nc(N(CCO)CCO)nc(N3CCCCC3)c2n1 :: FALSE
Cc1cc(CCN2CCN(c3nsc4ccccc34)CC2)cc2c1NC(=O)CC2(C)C :: FALSE
CCc1oc2ccccc2c1C(=O)c1cc(Br)c(O)c(Br)c1 :: FALSE

Each compound tested received a call. Report the one for CN(C)C(=O)C1(N2CCCCC2)CCN(CC[C@@]2(c3ccc(Cl)c(Cl)c3)CN(C(=O)c3ccccc3)CCO2)CC1 . FALSE
